Where do the numbers come from? From ChEMBL document CHEMBL4138314.

assayExplanation: Tmax in humanized mouse at 50 mg/kg, sc measured on day 1 post dose by LC-MS/MS analysis
Type: ADME, organism-based
assayConditions: in vivo
readoutKind: Tmax (h)
Number only, in h; omit the unit.

[Q] Find the recorded Tmax belonging to Cc1cc(NC(=O)c2cccc(S(=O)(=O)N[C@H]3CCOC3)c2)ccc1F and report it.
[A] 1

###

assayExplanation: Cmax in C57BL/6 mouse at 50 mg/kg, po by LC-MS/MS analysis
Assay type: ADME, organism-based
Set-up: dose 50 mg/kg, route oral
assayConditions: in vivo
readoutKind: Cmax (ng/mL)
Answer in ng/mL, number only, no unit symbol.

[Q] // Cmax lookup, key: Cc1cc(NC(=O)c2cccc(S(=O)(=O)N[C@H]3CCOC3)c2)ccc1F
[A] 9440

###

assayExplanation: Tmax in C57BL/6 mouse at 50 mg/kg, po by LC-MS/MS analysis
Assay type: ADME, organism-based
assayConditions: in vivo
readoutKind: Tmax (min)
// note: answer is a bare numeric in min

[Q] Entry under review: Cc1cc(NC(=O)c2cccc(S(=O)(=O)N[C@H]3CCOC3)c2)ccc1F . Reported Tmax?
[A] 42

###

assayExplanation: AUC (0 to 24 hrs) in humanized mouse at 200 mg/kg, sc for 8 days measured on day 8 post last dose by LC-MS/MS analysis
Format: ADME, organism-based
Set-up: time < 24 hr, dose 200 mg/kg, route subcutaneous
assayConditions: in vivo
readoutKind: AUC at 24 h (ng·h/mL)
Only the number, expressed in ng·h/mL, is required.

[Q] Given the entry Cc1cc(NC(=O)c2cccc(S(=O)(=O)N[C@H]3CCOC3)c2)ccc1F , report its measured AUC at 24 h.
[A] 86900

###

assayExplanation: Bioavailability in C57BL/6 mouse at 50 mg/kg, sc by LC-MS/MS analysis
Type: ADME, organism-based
assayConditions: in vivo
readoutKind: bioavailability (%)
Give the quantity in %, number only.

[Q] Would you mind telling me what bioavailability value was observed for Cc1cc(NC(=O)c2cccc(S(=O)(=O)N[C@H]3CCOC3)c2)ccc1F ?
[A] 68

###

assayExplanation: AUC (0 to infinity) in humanized mouse at 50 mg/kg, sc for 8 days measured on day 8 post last dose by LC-MS/MS analysis
Type: ADME, organism-based
Set-up: dose 50 mg/kg, time infinity, route subcutaneous
assayConditions: in vivo
readoutKind: AUC(0-inf) (ng·h/mL)
Express your answer in ng·h/mL, writing the number without its unit.

[Q] Consider the molecule Cc1cc(NC(=O)c2cccc(S(=O)(=O)N[C@H]3CCOC3)c2)ccc1F and give its measured AUC(0-inf).
[A] 20700

###

assayExplanation: Half life in humanized mouse at 50 mg/kg, sc measured on day 1 post dose by LC-MS/MS analysis
Format: ADME, organism-based
assayConditions: in vivo
readoutKind: half-life (h)
Respond with the bare value in h.

[Q] Returns the measured half-life for the input molecule. Input: Cc1cc(NC(=O)c2cccc(S(=O)(=O)N[C@H]3CCOC3)c2)ccc1F
[A] 1.1

###

Task for the reader: assign each of the following compounds its reported metabolised at 0.25 h, 1 µM.
assayExplanation: Drug metabolism in human liver microsomes at 1 uM after 15 mins by LC-MS/MS analysis
Assay type: ADME, microsome
assayConditions: read-out: Drug metabolism
Enter your answer as a number in %; do not include the unit.

[Q] Which value of metabolised at 0.25 h, 1 µM has been reported for CCN(CC)S(=O)(=O)c1ccc(Cl)c(C(=O)Nc2ccccc2)c1 in the records?
[A] 80

[Q] I am curious: what metabolised at 0.25 h, 1 µM value has been reported for CCc1cc(NC(=O)c2cccc(S(=O)(=O)NC(C)C)c2)ccc1F ?
[A] 31

[Q] Please report the recorded metabolised at 0.25 h, 1 µM for CN1CCN(S(=O)(=O)c2cccc(C(=O)Nc3ccc(F)cc3)c2)CC1 .
[A] 53

[Q] Would you kindly share the measured metabolised at 0.25 h, 1 µM for O=C(Nc1ccc(F)cc1)c1ccc(Cl)c(S(=O)(=O)N2CCCCCC2)c1 ?
[A] 98

[Q] I am curious: what metabolised at 0.25 h, 1 µM value has been reported for O=C(Nc1ccc(F)cc1)c1cccc(C(=O)NC2CCCCC2)c1 ?
[A] 56

[Q] # query: metabolised at 0.25 h, 1 µM of entry Cc1ccccc1NC(=O)c1cccc(S(=O)(=O)NC2CCCCC2)c1
[A] 86

[Q] Param item = O=C(Nc1ccc(F)cc1)c1cccc(NC(=O)C2CCCCC2)c1 ; retrieve measured metabolised at 0.25 h, 1 µM.
[A] 55

[Q] What measured metabolised at 0.25 h, 1 µM goes with Cc1cc(NC(=O)c2cccc(S(=O)(=O)N[C@H]3CCOC3)c2)c(F)cc1F ?
[A] 17

[Q] State the recorded metabolised at 0.25 h, 1 µM for this entry: O=C(Nc1ccc(F)cc1)c1cccc(S(=O)(=O)NC2CCOCC2)c1
[A] 14

[Q] Item Cc1cc(NC(=O)c2cccc(S(=O)(=O)NC3CCCC3)c2)ccc1F has what recorded metabolised at 0.25 h, 1 µM?
[A] 66

[Q] I'd like to know its metabolised at 0.25 h, 1 µM. The compound in question is O=C(Nc1ccc(F)cc1)c1cc(S(=O)(=O)NC2CCCC2)ccc1F
[A] 36

[Q] Fill blank: measured metabolised at 0.25 h, 1 µM of the compound O=C(Nc1ccccc1)c1cccc(S(=O)(=O)NC2CCCC2)c1 is ____.
[A] 94

[Q] Entry under review: CC(C)NS(=O)(=O)c1cccc(C(=O)Nc2ccc(F)c(C3CC3)c2)c1 . Reported metabolised at 0.25 h, 1 µM?
[A] 27

[Q] Give the measured metabolised at 0.25 h, 1 µM of O=C(Nc1ccc(F)cc1)c1cccc(S(=O)(=O)N[C@H]2CCOC2)c1 .
[A] 32

[Q] Look up metabolised at 0.25 h, 1 µM: CCC(CC)NS(=O)(=O)c1cccc(C(=O)Nc2ccc(F)cc2)c1
[A] 53

[Q] If you can, please state the reported metabolised at 0.25 h, 1 µM value of CC(C)NS(=O)(=O)c1cccc(C(=O)Nc2ccc(F)c(C(C)C)c2)c1 .
[A] 31

[Q] If you can, please state the reported metabolised at 0.25 h, 1 µM value of Cc1cc(NC(=O)c2cccc(S(=O)(=O)NC3(C)COC3)c2)ccc1F .
[A] 7

[Q] Reported metabolised at 0.25 h, 1 µM, compound O=C(Nc1ccccc1)c1ccc(F)c(S(=O)(=O)NC2CCCCC2)c1 : ____
[A] 100

[Q] Which metabolised at 0.25 h, 1 µM reading was recorded for the compound O=C(NCc1ccccc1)c1cc(S(=O)(=O)NC2CCCCC2)ccc1F ?
[A] 74

[Q] # get_value(readout='metabolised at 0.25 h, 1 µM', item= CC(=O)N1CCC(NS(=O)(=O)c2cccc(C(=O)Nc3ccc(F)cc3)c2)CC1 )
[A] 0

[Q] Which metabolised at 0.25 h, 1 µM value belongs to O=C(Nc1ccncc1)c1cc(S(=O)(=O)NC2CCCCC2)ccc1F ?
[A] 68

[Q] GET /values?readout=metabolised at 0.25 h, 1 µM&item= CC(C)NS(=O)(=O)c1cccc(C(=O)Nc2ccc(F)cc2)c1
[A] 16

###

assayExplanation: Cmax in humanized mouse at 200 mg/kg, sc for 8 days measured on day 8 post last dose by LC-MS/MS analysis
Assay type: ADME, organism-based
Set-up: dose 200 mg/kg, route subcutaneous
assayConditions: in vivo
readoutKind: Cmax

[Q] Give its Cmax value. Item: Cc1cc(NC(=O)c2cccc(S(=O)(=O)N[C@H]3CCOC3)c2)ccc1F
[A] 7700 ng/mL

###

Give solubility kinetic at 4 h for every item shown.
assayExplanation: Kinetic solubility of the compound at pH 7.4 after 4 hrs by UPLC-UV analysis
Format: physicochemical
assayConditions: buffer, read-out: Kinetic_solubility
Write the answer as a number in µM, unit excluded.

[Q] I am curious: what solubility kinetic at 4 h value has been reported for O=C(Nc1ccc(F)cc1)c1cccc(NC(=O)C2CCCCC2)c1 ?
[A] 7

[Q] # query: solubility kinetic at 4 h of entry O=C(Nc1ccc(F)cc1)c1cc(S(=O)(=O)NC2CCCC2)ccc1F
[A] 82

[Q] Returns the measured solubility kinetic at 4 h for the input compound. Input: O=C(Nc1cccc(F)c1)c1cccc(S(=O)(=O)NC2CCCC2)c1
[A] 57

[Q] Given the entry O=C(Nc1ccc(F)cc1)c1cccc(NS(=O)(=O)C2CCCCC2)c1 , report its measured solubility kinetic at 4 h.
[A] 86

[Q] Would you mind telling me what solubility kinetic at 4 h value was observed for CC[C@H](C)NS(=O)(=O)c1cccc(C(=O)Nc2ccc(F)cc2)c1 ?
[A] 92

###

Would you mind telling me the reported metabolised at 0.25 h, 1 µM of each entry?
assayExplanation: Drug metabolism in human liver microsomes at 1 uM after 15 mins by LC-MS/MS analysis
Assay type: ADME, microsome
assayConditions: read-out: Drug metabolism
Answer in %, number only, no unit symbol.

[Q] For the molecule shown here, O=C(Nc1ccc(F)cc1)c1cccc(NS(=O)(=O)C2CCCCC2)c1 , give the reported metabolised at 0.25 h, 1 µM.
[A] 46

[Q] metabolised at 0.25 h, 1 µM for Cc1cc(F)cc(NC(=O)c2cccc(S(=O)(=O)NC3CCCC3)c2)c1 ?
[A] 74

[Q] Reported metabolised at 0.25 h, 1 µM for O=C(Nc1ccc2ccccc2c1)c1cc(S(=O)(=O)NC2CCCCC2)ccc1F : what is it?
[A] 36

[Q] Consider the molecule O=C(Nc1ccc(F)cc1)c1cccc(S(=O)(=O)N[C@@H]2CCOC2)c1 and give its measured metabolised at 0.25 h, 1 µM.
[A] 21

[Q] Value lookup for metabolised at 0.25 h, 1 µM; key = CC1(NS(=O)(=O)c2cccc(C(=O)Nc3ccc(F)cc3)c2)COC1
[A] 3

[Q] What value of metabolised at 0.25 h, 1 µM has been recorded for this entry: Cc1c(NC(=O)c2cccc(S(=O)(=O)N[C@H]3CCOC3)c2)ccc(F)c1F
[A] 37

[Q] Look up metabolised at 0.25 h, 1 µM for this molecule: O=C(Nc1ccc(F)cc1)c1cccc(S(=O)(=O)N2CCCC2)c1
[A] 44

[Q] What measured metabolised at 0.25 h, 1 µM goes with CC(C)(C)NS(=O)(=O)c1cccc(C(=O)Nc2ccc(F)cc2)c1 ?
[A] 15

[Q] Fill in: metabolised at 0.25 h, 1 µM of Cc1c(F)ccc(NC(=O)c2cccc(S(=O)(=O)NC3(C)COC3)c2)c1C is ___
[A] 0

[Q] What metabolised at 0.25 h, 1 µM value was documented for this molecule, CN(C1CCCC1)S(=O)(=O)c1cccc(C(=O)Nc2ccc(F)cc2)c1 ?
[A] 98
